Values from PubChem BioAssay (NCATS)

The reader will find reported activation values listed item by item below.
# EXPERIMENTAL_SYSTEM: Cellular tumor antigen p53 (Homo sapiens)
# PROTOCOL_DETAILS: Primary qHTS for small molecule compounds that upregulate eGFP-tagged delta133p53alpha (in N-terminal) cells. (AID 2060322);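 further: cells pre-induced with doxycycline then dosed without doxycycline; series mostly up to about 56 µM; 0% = DMSO vehicle and 100% = reference activator; nearly all actives have a fitted effect of over 75% in size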
# MEASUREMENT_CONDITIONS: NCI-H358 eGFP-delta133p53alpha fluorescence, 24 h; stronger effect = higher value
Records with an inconclusive call do not appear. Calls of active or inactive are those of the source. The call rests on the fitted dose curve; in most records, active means well fitted activation curve with a large enough effect; inconclusive means small, poorly fitted or top-dose-only effect; inactive means no such curve, though single readings can be large or run the other way.

# MOLECULE, activation
data = [
    ("O=C1c2c(O)cc(O)cc2O[C@H](c2cc(O)c(O)c(O)c2)[C@H]1O", "-0.847% (inactive)"),
    ("Cc1cc(CO)c(O)c(C(=O)CC2CC(=O)NC(=O)C2)c1", "-5.34% (inactive)"),
    ("CC1=CC(=O)C2C(C)(C)CCC[C@]2(C)[C@H]1CO (stereo partly specified)", "-3.82% (inactive)"),
    ("CC1(C)C=CN2C(=O)C3=CCCN3C(=O)[C@@H]2C[C@@]12Nc1ccccc1C2=O", "-19.8% (inactive)"),
    ("CS/C=C/C(=O)O[C@@H]1CCC2=CC(=O)C(=C(C)C)C[C@]2(C)[C@H]1C", "-1.79% (inactive)"),
    ("CC1(C)CCC2(C(=O)OC3OC(CO)C(O)C(O)C3O)CCC3(C)C(=CCC4C5(C)CCC(O)C(C)(C(=O)O)C5CCC43C)C2C1O (stereo unspecified)", "3.57% (inactive)"),
    ("COc1c(N2C[C@@H]3CCCN[C@H]3C2)c(F)cc2c(=O)c(C(=O)O)cn(C3CC3)c12", "0.987% (inactive)"),
    ("COc1cc2ncn(-c3cc(OCc4ccccc4S(C)(=O)=O)c(C#N)s3)c2cc1OC", "-10.5% (inactive)"),
    ("COc1cc(C(=S)N2CCOCC2)ccc1O", "-10.7% (inactive)"),
    ("CCOC(=O)c1ccc(OCCN2C[C@H](O)[C@@H](O)[C@H](O)[C@H]2CO)cc1", "-6.33% (inactive)"),
    ("CC[N+](CC)(CC(=O)Nc1c(C)cccc1C)Cc1ccccc1", "-10.9% (inactive)"),
    ("CC1CCCC(O)CC(=O)c2c(O)cc(O)cc2CC(=O)O1 (stereo unspecified)", "4.58% (inactive)"),
    ("CC/C=C/CC1=C(CCCCCCCC(=O)O)CCC1=O", "-17.9% (inactive)"),
    ("COc1ccc2c3ccnc4ccc(=O)n(c2c1)c43", "17% (inactive)"),
    ("Cc1ncc(CO)c(CO)c1O", "-24.3% (inactive)"),
    ("Cc1cccc(-c2nn3c(c2-c2ccnc4ccc(C(N)=O)cc24)CCC3)n1", "-7.16% (inactive)"),
    ("CCOc1ccc(-c2nc(-c3cccc4c3CCC4NCCO)no2)cc1OCC (stereo unspecified)", "-0.955% (inactive)"),
    ("CCOC(=O)O[C@]1(C(=O)OCCl)CC[C@@H]2[C@H]3CCC4=CC(=O)C=C[C@]4(C)[C@@H]3[C@@H](O)C[C@@]21C", "-2.28% (inactive)"),
    ("CN(C)CCN(Cc1ccccc1)c1ccccn1", "24.3% (inactive)"),
    ("O=C(OCc1ccccc1O[C@@H]1O[C@H](CO)[C@@H](O)[C@H](O)[C@H]1O)C1(O)C=CCCC1O (stereo partly specified)", "-2.29% (inactive)"),
    ("CC(=O)N1CCN(CCOc2ccc(C3CCN(C4=Nn5c(nnc5C(F)(F)F)CC4)CC3)cc2)CC1", "-2.39% (inactive)"),
]
